Assay: gradient 5% acetonitrile 3 min, to 50% in 2 min, to 85% in 15 min, held 3 min, 100 µL/min
Conditions: column: Zorbax Extend-C18 2.1 x 50 mm; eluents: water / acetonitrile, 0.1% formic acid
Assign RP-LC retention time to each entry below.
Give bare numbers, in s.

Solved cases (8 shown):
compound: CC(=O)N1CCCC1c1nc(C2CN(C(=O)NCc3ccco3)C2)no1 (stereo not given)
RP-LC retention time / s: 617

compound: COCCNC(=O)C1Cn2cccc2C(=O)N1C (stereo not given)
RP-LC retention time / s: 570

compound: COc1ccc(Cn2c(C)c(CNCCc3ccco3)c(C(=O)O)c2C)cc1
RP-LC retention time / s: 704

compound: O=C(c1ccc(Cn2cncn2)cc1)N1CCc2ccccc2C1
RP-LC retention time / s: 687

compound: CCN1CCN(C(=O)CCC2CCCN(c3cc(NC4CC4)ncn3)C2)CC1 (stereo not given)
RP-LC retention time / s: 555

compound: O=C(NCCCc1ccccc1)C1(CCO)CCN(c2ncccn2)C1 (stereo not given)
RP-LC retention time / s: 651

compound: CC(=O)Nc1cccc(N2CC(C(=O)NC3CCCCCCC3)CC2=O)c1 (stereo not given)
RP-LC retention time / s: 731

compound: O=C([C@@H]1C[C@H](F)CN1S(=O)(=O)c1ccccc1)N1CCCCC1
RP-LC retention time / s: 735

List reported RP-LC retention time for each of these compounds:
1. Cc1ccc(C)c(S(=O)(=O)N2CCc3nc[nH]c3C2)c1
2. CCCn1ncc(N2CCC(C(=O)N(C)Cc3cn(C)nc3C)CC2)cc1=O

Output line:
627
619

---

Assign RP-LC retention time to each entry below.
Assay: gradient 5% acetonitrile 3 min, to 50% in 2 min, to 85% in 15 min, held 3 min, 100 µL/min
Conditions: column: Zorbax Extend-C18 2.1 x 50 mm; eluents: water / acetonitrile, 0.1% formic acid
Give bare numbers, in s.

Solved cases (4 shown):
molecule: N#Cc1ccc(S(=O)(=O)N2CCC(Cc3nc(-c4ccncc4)n[nH]3)C2)cc1 (stereo not given)
RP-LC retention time, s: 620
//
molecule: CCCN1C(=O)c2ccccc2Sc2cc(-c3noc(CNC(=O)c4cccs4)n3)ccc21
RP-LC retention time, s: 999
//
molecule: Cc1ccc(Cl)cc1NC(=O)N1CC=C(c2cn(C)c3ncccc23)CC1
RP-LC retention time, s: 773
//
molecule: COc1cccc(Cn2nc3c(S(=O)(=O)N4CCCC4)cccn3c2=O)c1
RP-LC retention time, s: 814

// below: RP-LC retention time requested for another molecule
Measured RP-LC retention time, O=C(Cn1c(=O)c2cccn2c2ccccc21)Nc1ccc(Cl)cc1 : 901

---

Assay: gradient 5% acetonitrile 3 min, to 50% in 2 min, to 85% in 15 min, held 3 min, 100 µL/min
Details: column: Zorbax Extend-C18 2.1 x 50 mm; eluents: water / acetonitrile, 0.1% formic acid
Parameter threshold = 800 s. Response is Criterion met when RP-LC retention time meets or exceeds it, else Criterion not met.

molecule: O=C(Nc1cc(-c2ccsc2)no1)c1ccc(Br)o1
class: Criterion met

molecule: CCOC(=O)CNC(=O)NCc1cccn1Cc1ccc(Cl)cc1
class: Criterion met

molecule: CCN1CCn2c(nc3cc(C(=O)NCC4CCCCC4)ccc32)C1=O
class: Criterion not met

molecule: CCCC(=O)Nc1ccc(CCc2nc3ccc(C(=O)NCc4ccco4)cc3[nH]2)cc1
class: Criterion not met

molecule: Cc1cccc(Oc2nccnc2N2CCC(C(=O)NC(C)c3ccc(C)cc3C)CC2)c1 (stereo not given)
class: Criterion met

molecule: Cc1oc(-c2[nH]ncc2C(=O)N2CCOCC2)cc1S(=O)(=O)N1CCC(C)CC1
class: Criterion not met

molecule: COc1ccc(-c2nn3c(N4CCN(c5ccccn5)CC4)cc(C)nc3c2C)cc1
class: Criterion not met

molecule: O=C(Cc1cccs1)Nc1cccn2nc(C3CCC3)nc12
class: Criterion met

molecule: CCSc1nnc(-c2nn(C)c3c2CN(C(=O)c2ccccc2F)CC3)n1C
class: Criterion not met

molecule: CCNS(=O)(=O)c1cc(-c2c(CC)noc2NC(C)=O)ccc1C
class: Criterion not met

Input line: RP-LC retention time >= 800 s for CN(CCc1ccccn1)C(=O)CCC1CCCN(c2cc(NC3CC3)ncn2)C1 (stereo not given) ?
Output line: Criterion not met

Input line: RP-LC retention time >= 800 s for COc1ccc(-c2noc(-c3nc(Cc4ccc(F)cc4)no3)n2)cc1 ?
Output line: Criterion met

Input line: RP-LC retention time >= 800 s for COc1ccc(NS(=O)(=O)c2c(C)nn(-c3ccc(-c4ccc(C)cc4)nn3)c2C)cc1F ?
Output line: Criterion met
